Target: T1, MUC1 60-mer peptide NH2-(…)3-COOH (biotinylated in the ELISAs and selections)
T1 construct: also called biotinylated MUC1 60-mer
T1 sequence (peptide, as listed by the source): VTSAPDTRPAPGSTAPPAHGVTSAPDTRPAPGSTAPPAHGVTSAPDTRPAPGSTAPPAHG
Assay: ELISA, soluble Fab, biotinylated MUC1 60-mer; relative signal

binder	binding result
3H2 (Fab, V domains shown, PH1 Fab variant) VH: QVQLVQSGGGLVQPGGSLRLSCAASGFTFRSNAMGWVRQAPGKGLEWVSGISGSGGSTYYADSVKGRFTISRDNSKNTLYLQMNSLRAEDTAVYYCAKHTGGGVWDPMDYWGQGTLVTVSS VL: EIVLTQSPLSLPVTPGEPASISCRSSQSLLHSNGYTYLDWYLQKPGQSPQLLIYSGSHRASGVPDRFSGSVSGTDFTLRISRVEAEDVGVYYCMQGLQSPFTFGPGTKVDIKR	binds
11B9 (Fab, V domains shown, PH1 Fab variant) VH: QVQLVQSGGGLVQPGGSLRLSCAASGFTFRSNAMGWVRQAPGKGLEWVSGISGSGGSTYYADSVKGRFTISRDNSKNTLYLQMNSLRAEDTAVYYCARHTGGGVWDPINYWGQGTLVTVSS VL: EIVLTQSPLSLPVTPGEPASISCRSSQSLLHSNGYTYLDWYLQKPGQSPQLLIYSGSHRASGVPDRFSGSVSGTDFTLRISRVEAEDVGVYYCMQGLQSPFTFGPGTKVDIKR	binds
3A7 (Fab, V domains shown, PH1 Fab variant) VH: QVQLVQSGGGLVQPGGSLRLSCAASGFTFRSNAMGWVRQAPGKGLEWVSGISGSGGSTYYADSVKGRFTISRDNSKNTLYLQMNSLRAEDTAVYYCAKHTGGGVWDPIDKWGQGTLVTVSS VL: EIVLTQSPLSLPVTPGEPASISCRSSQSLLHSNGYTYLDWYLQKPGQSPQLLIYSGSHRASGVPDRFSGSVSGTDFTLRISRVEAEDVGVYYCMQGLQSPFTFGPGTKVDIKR	binds
